# target.desc: T1, TJP3_3, O95049
# T1 sequence (O95049 375-456, limits assumed, looked up): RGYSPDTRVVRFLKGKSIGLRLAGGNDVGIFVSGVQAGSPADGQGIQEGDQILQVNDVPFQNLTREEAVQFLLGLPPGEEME
# protocol.details: holdup assay
# Set-up: key: below the threshold = too weak to quantify, mostly under pKd 3.1 to 4
# run.parameters: plain residues with an end cap or a label only (N-terminal biotin on a linker: ttds)
reported.property: pKd

Example binders with recorded pKd:
DKDPHSETAL [TMIGD1, Q6UXZ0] :: 3.49
RLPKIKETTV [FRMPD4, Q14CM0] :: below the threshold
RLQRRRETQV [HPV18-E6, P06463] :: below the threshold
FHPLGADSQV [SLC2A1, P11166] :: below the threshold
PVRVCEETSL [OTULIN, Q96BN8] :: below the threshold

Hi team, please reply with pKd for each item in this list.
1. SSLQSLETSV [ATP2B4, P23634]
2. PRVKPQRSKV [PPP1R13L, Q8WUF5]
3. EMDRRPATVV [PLCB4, Q15147]
4. EVVHTPETSV [SLC16A3, O15427]
5. RPLPRKVSQL [DOCK4, Q8N1I0]
6. VDFPPKESSL [ACVR2A, P27037]
7. NDPAWDETNL [ARHGEF7, Q14155;Q14155-1]

Response:
3.71
below the threshold
below the threshold
below the threshold
below the threshold
below the threshold
below the threshold

This collection of values is drawn from paper PMC9482650.
